Target: human CB1 receptors (Homo sapiens (Human), UniProt P21554)
Sequence (P21554 whole entry): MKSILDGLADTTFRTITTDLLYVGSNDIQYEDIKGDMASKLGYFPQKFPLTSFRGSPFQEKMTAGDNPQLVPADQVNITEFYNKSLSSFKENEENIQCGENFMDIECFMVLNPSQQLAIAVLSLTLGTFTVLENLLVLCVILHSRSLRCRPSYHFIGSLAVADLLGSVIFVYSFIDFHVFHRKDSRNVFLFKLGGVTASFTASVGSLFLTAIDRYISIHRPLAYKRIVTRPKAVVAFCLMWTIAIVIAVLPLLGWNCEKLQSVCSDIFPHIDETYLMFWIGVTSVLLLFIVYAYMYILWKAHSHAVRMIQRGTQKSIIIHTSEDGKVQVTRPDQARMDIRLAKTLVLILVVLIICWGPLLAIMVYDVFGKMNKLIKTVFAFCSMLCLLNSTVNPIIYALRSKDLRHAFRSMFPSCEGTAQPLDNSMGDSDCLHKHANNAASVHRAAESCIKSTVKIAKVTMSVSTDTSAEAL
Test: cAMP assay, CHO cells expressing human CB1 receptors
Assay type: cell-based
Details: CHO cells expressing human CB1, cAMP; read-out: human CB1 EC50
pEC50: −log10 of the molar value.
Listing of entries alongside the reported pEC50.
metric-name: pEC50

• Cc1nc(C(NC(=O)c2cccc(-c3ccc(F)c(Cl)c3)n2)C2CC2)no1 (racemic) = 5.79
• COCCOc1nc(C(=O)N[C@@H](CC(C)C)C(N)=O)ccc1C1CC1 = < 5.00
• Cc1nc([C@](C)(NC(=O)c2ccc(C3CC3)c(OCC3CC3)n2)C2CC2)no1 = < 5.00
• CC(C)C[C@H](NC(=O)c1ccc(C2CC2)c(OCC2CCCO2)n1)C(N)=O (stereo partly shown) = 5.83
• O=C(N[C@H](c1cccnc1)C(F)(F)F)c1ccc(N2CC(F)(F)C2)c(OCC2CC2)n1 = < 5.00
• CCC(CC)(NC(=O)c1ccc(Cl)c(-c2cccc(Cl)c2)n1)C(=O)NC = < 5.00
• Cc1nc([C@H](CC(C)C)NC(=O)c2cccc(C(O)c3ccc(F)cc3)n2)no1 (stereo partly shown) = < 5.00
• CCC(CC)(NC(=O)c1ccc(C(F)(F)F)c(OCC2CCOCC2)n1)C(=O)N(C)C = < 5.00
• CCC(CC)(NC(=O)c1ccc(N2CCC(F)(F)C2)c(OCC2CC2)n1)C(=O)NC = < 5.00
• Cc1nc(C(C)(C)NC(=O)c2ccc(C3CC3)c(OCC3CCCO3)n2)no1 (stereo not shown) = < 5.00
• CC(C)(NC(=O)c1ccc(N2CC(F)(F)C2)c(-c2cccc(Cl)c2)n1)c1nccs1 = < 5.00
• CNC(=O)[C@H](CC(C)C)NC(=O)c1ccc(C2CC2)c(OCC2CC2)n1 = 6.64
• Cc1nc([C@H](CC2CC2)NC(=O)c2ccc(C3CC3)c(OCC3CC3)n2)no1 = < 5.00
• CCC(CC)(NC(=O)c1ccc(N2CC(F)(F)C2)c(OCC2CC2)n1)C(=O)N1CC(F)(F)C1 = < 5.00
• Cn1c(C(C)(C)NC(=O)c2ccc(C3CC3)c(OCC3CC3)n2)noc1=O = < 5.00
• Cc1nc(C(C)(C)NC(=O)c2ccc(C(F)(F)F)c(OCC3CC3)n2)no1 = < 5.00
